Just for reference, ChEMBL document CHEMBL3739352 is where these values come from.

# System: Salmonella typhimurium
# MEASUREMENT DESCRIPTION: Mutagenicity in Salmonella typhimurium TA1535 assessed as number of revertants at 1000 ug/plate by Ames test (reference value: 10 +/- 3)
# Format: toxicity, organism-based
# CONDITION INFO: salmonella enterica subsp. enterica serovar typhimurium
Class YES: Activity at least 6. Class NO: Activity below 6.

A selection of reference data follows.
>>> category_label("CC(O)CNC(=O)/C=C/c1ccccc1 (racemic)")
"YES"
>>> category_label("CCC(CO)NC(=O)/C=C/c1ccccc1 (racemic)")
"YES"
>>> category_label("CC(C)C(CO)NC(=O)/C=C/c1ccccc1 (racemic)")
"YES"

Read the next record carefully.
QUERY: Record O=C(/C=C/c1ccccc1)N1CCC(O)CC1 ; criterion: Activity no lower than 6. Met?
RESULT: NO

* * *

I'd be grateful if you could share measured Activity for these entries.
# Tested on: Salmonella typhimurium
# MEASUREMENT DESCRIPTION: Mutagenicity in Salmonella typhimurium TA100 assessed as number of revertants at 500 ug/plate by Ames test (reference value: 77 +/-4)
# Assay type: toxicity, organism-based
# CONDITION INFO: salmonella enterica subsp. enterica serovar typhimurium
One number for each entry.

Known results for compounds:
>>> measurement("CCC(O)CNC(=O)/C=C/c1ccccc1 (racemic)")
60
>>> measurement("CC(O)CNC(=O)/C=C/c1ccccc1 (racemic)")
65
>>> measurement("CC(CO)NC(=O)/C=C/c1ccccc1 (racemic)")
65
>>> measurement("O=C(/C=C/c1ccccc1)N[C@H]1CCCC[C@@H]1O (racemic)")
73
>>> measurement("CCC(CO)NC(=O)/C=C/c1ccccc1 (racemic)")
72
>>> measurement("O=C(/C=C/c1ccccc1)N1CCC(O)CC1")
72

Proceed to the following item.
QUERY: Lab note: Salmonella typhimurium assay, enter Activity for CC(C)C(CO)NC(=O)/C=C/c1ccccc1 (racemic) here
RESULT: 79

* * *

# System: Salmonella typhimurium
# MEASUREMENT DESCRIPTION: Mutagenicity in Salmonella typhimurium TA1535 assessed as mutagenic index at 1000 ug/plate by Ames test
# Format: toxicity, organism-based
# CONDITION INFO: salmonella enterica subsp. enterica serovar typhimurium
With a cut-off of 0.6, any Activity_index strictly below it is called Fulfilled; any Activity_index meeting it or above is called Not fulfilled.

A selection of reference data follows.
>>> category_label("O=C(/C=C/c1ccccc1)N1CCC(O)CC1")
"Fulfilled"
>>> category_label("CC(C)C(CO)NC(=O)/C=C/c1ccccc1 (racemic)")
"Not fulfilled"
>>> category_label("CCC(CO)NC(=O)/C=C/c1ccccc1 (racemic)")
"Not fulfilled"

QUERY: Here's an entry: CC(O)CNC(=O)/C=C/c1ccccc1 (racemic) . Is its Activity_index below 0.6?
RESULT: Not fulfilled

* * *

# Tested on: Salmonella typhimurium
# MEASUREMENT DESCRIPTION: Mutagenicity in Salmonella typhimurium TA100 assessed as number of revertants at 100 ug/plate by Ames test (reference value: 77 +/-4)
# Format: toxicity, organism-based
# CONDITION INFO: salmonella enterica subsp. enterica serovar typhimurium
QUANTITY NAME: Activity
Answers are plain numbers.

Value sought for every listed compound: Activity.
1. CCC(CO)NC(=O)/C=C/c1ccccc1 (racemic)
2. O=C(/C=C/c1ccccc1)N1CCC(O)CC1
3. O=C(/C=C/c1ccccc1)N[C@H]1CCCC[C@@H]1O (racemic)
4. CC(CO)NC(=O)/C=C/c1ccccc1 (racemic)
5. CCC(O)CNC(=O)/C=C/c1ccccc1 (racemic)
6. CC(O)CNC(=O)/C=C/c1ccccc1 (racemic)

RESULT:
1: 64; 2: 76; 3: 72; 4: 71; 5: 62; 6: 67

QUERY: Return the recorded Activity value; entry: CC(C)C(CO)NC(=O)/C=C/c1ccccc1 (racemic)
RESULT: 80
